Here the recorded Z.LYZ.NS is given for each entry.
System: ISC-enriched organoids
Test: Primary screen, 384-well 2.5-D organoid differentiation (ENR+CD, 6 days): basal lysozyme secretion (LYZ.NS)
Assay type: cell-based, murine
Conditions: Dose 2.00 uM; standard z score of FC
Form: value (number only, do not type unit).

{"columns": ["Compound", "Measured Target", "Z.LYZ.NS"],
 "data": [
  ["OCCn1cc(-c2cnc3nnn(Cc4ccc5ncccc5c4)c3n2)cn1", "ISC-enriched organoids", 1.060],
  ["CCC(CC)CC1(C(=O)Nc2ccccc2SC(=O)C(C)C)CCCCC1", "ISC-enriched organoids", "−0.296"],
  ["CC(=O)O[C@H]1C[C@@H]2CC[C@@H]3[C@H](CC[C@@]4(C)[C@H]3C[C@H]([N+]3(C)CCCCC3)[C@@H]4OC(C)=O)[C@@]2(C)C[C@@H]1[N+]1(C)CCCCC1.[Br-].[Br-] [Pancuronium dibromide]", "ISC-enriched organoids", 0.806],
  ["CCOC(=O)c1ccc(NC2CCCCC2)c(N)c1", "ISC-enriched organoids", 0.610]
]}

Prompt: Quick check: Z.LYZ.NS of CC1=C(C(=O)OC2CCCCC2)C(c2ccc([N+](=O)[O-])cc2)C2=C(CC(C)(C)CC2=O)N1 (centres unmarked) ?
Completion: −0.466

Prompt: Now give it for C[C@](O)(COc1ccc(C#N)cc1)C(=O)Nc1ccc(C#N)c(C(F)(F)F)c1 too.
Completion: 0.310

Prompt: Now give it for O=C(NNc1ccccc1)c1ccncc1 too.
Completion: −0.929

Prompt: Now give it for CNC(=O)c1cc(Oc2ccc(NC(=O)Nc3cc(C(C)(C)C)nn3-c3ccc4ncccc4c3)c(F)c2)ccn1 [DCC-2036 (Rebastinib)] too.
Completion: 0.637
